species: Rattus norvegicus; test: Open TG-GATES - Regimen: Daily Repeat; format: toxicity, organism-based, Sprague-Dawley; design: regimen Daily Repeat, gender Male, age 6 weeks; settings: in vivo, po, 0 mg/kg, […], tissue Plasma, route gavage, dose level Control, time 7 day
EXPERIMENTAL_ENDPOINT: TP

The examples below pair each entry with its known result.
compound=Cc1nnc2n1-c1ccc(Cl)cc1C(c1ccccc1Cl)=NC2 readout_value="5.6 g/dL"
compound=Brc1ccccc1 readout_value="5.9 g/dL"

q: # get_value(readout='TP', item= "CCCc1cc(=O)[nH]c(=S)[nH]1" )
a: 6.1 g/dL

q: # get_value(readout='TP', item= CN1C(=O)CCS(=O)(=O)C1c1ccc(Cl)cc1 (stereo unspecified) )
a: 6 g/dL

q: # get_value(readout='TP', item= CN(C)CCC(c1ccc(Cl)cc1)c1ccccn1 (stereo unspecified) )
a: 6.1 g/dL

q: # get_value(readout='TP', item= "CN/C(=N/CCSCc1nc[nH]c1C)NC#N" )
a: 5.7 g/dL
